Hey, just so you know, these numbers are from BindingDB's records for doi:10.1046/j.1471-4159.2000.740478.x.

- MEASURED TARGET: 5-hydroxytryptamine receptor 4 (Homo sapiens)
- Sequence (Q13639 whole entry): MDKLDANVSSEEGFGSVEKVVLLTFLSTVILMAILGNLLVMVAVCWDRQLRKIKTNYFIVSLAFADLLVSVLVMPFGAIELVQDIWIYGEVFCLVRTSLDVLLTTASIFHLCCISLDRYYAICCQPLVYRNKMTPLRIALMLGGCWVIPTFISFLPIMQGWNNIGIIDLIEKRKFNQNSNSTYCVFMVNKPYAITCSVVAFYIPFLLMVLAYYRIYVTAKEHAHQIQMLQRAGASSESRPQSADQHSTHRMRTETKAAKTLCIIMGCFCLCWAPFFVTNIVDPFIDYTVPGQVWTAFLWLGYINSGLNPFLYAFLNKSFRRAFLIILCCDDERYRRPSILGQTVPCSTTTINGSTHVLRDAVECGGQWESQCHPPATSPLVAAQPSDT
READOUT KIND: pKi
Expect pKi as a plain number equal to -log10 of the molar concentration.

Challenge: Reported pKi for `COc1ccc2[nH]cc(CCN)c2c1` : what is it?
Response given: 6.10
